- testedSystem: T1, PSMA Fab
- T1 construct: also called 006 PSMA Fab; anti-PSMA Fab
- measurementProtocol: competition ELISA; peptide 0-100 µM with 0.3 nM PSMA Fab on plate-captured biotinylated PSMA
Entries and their measured pIC50 follow.
Hey, just a heads up that pIC50 is the negative log base 10 of the concentration in molar.

Guide cases for pIC50, answers given:
binder | assayResult
DLRLCKPAWMCDFI [Peptide-231] | 5.90
VEKLCTPIWMCLGF [Peptide-235] | 6.49
IDIRCTPIWMCVGF [Peptide-239] | 6.21
IPKSCIPSWMCTGF [Peptide-225] | 6.47

Input: What does the record list as pIC50 for FEKWCTPPWMCSLF [Peptide-222] ?
Output: 5.38

Input: Let us now turn to ISKWCIPEWMCTSP [Peptide-237]
Output: 5.57

Input: Let us now turn to LDKWCVPKWMCSGL [Peptide-232]
Output: 6.02

Input: Let us now turn to EFKWCIPSWMCHET [Peptide-228]
Output: 5.72

Input: Let us now turn to VVKACIPTWMCQFV [Peptide-229]
Output: 5.39

Input: Let us now turn to LTKLCIPDWMCSEF [Peptide-226]
Output: 5.57

Input: Let us now turn to GEKWCIPDWMCSGF [Peptide-233]
Output: 6.44

Input: Let us now turn to VGKLCVPEWMCVGL [Peptide-217]
Output: 5.60

Input: Let us now turn to DLRLCKPAWMCYFI [Peptide-223]
Output: 5.83

Input: Let us now turn to LDNWCKPSWMCTGF [Peptide-227]
Output: 6.12

Input: Let us now turn to IDKLCIPFWMCENL [Peptide-221]
Output: 5.67

Input: Let us now turn to VLKWCRPAWMCEVL [Peptide-216]
Output: 5.54

Taken from patent US20260242478A1.
